Biological target: PqsR (Pseudomonas aeruginosa, UniProt Q9I4X0)
Sequence (Q9I4X0 whole entry): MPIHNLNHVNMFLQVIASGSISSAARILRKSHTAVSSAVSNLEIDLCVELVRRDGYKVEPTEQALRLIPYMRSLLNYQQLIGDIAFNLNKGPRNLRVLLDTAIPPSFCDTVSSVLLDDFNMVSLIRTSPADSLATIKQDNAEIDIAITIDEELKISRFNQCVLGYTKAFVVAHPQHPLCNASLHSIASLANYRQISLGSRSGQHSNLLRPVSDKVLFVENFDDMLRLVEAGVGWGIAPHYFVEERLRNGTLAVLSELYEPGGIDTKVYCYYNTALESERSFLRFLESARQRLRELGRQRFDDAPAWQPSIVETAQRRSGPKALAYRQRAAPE
Test: E. coli PqsR/ppqsA-lux reporter assay
observation type: IC50

{"molecule": "O=C(Nc1nnc(C(F)(F)F)s1)C1CC(=O)N(CCc2c[nH]c3ccc(Cl)cc23)C1 (stereo not drawn)", "reported measurement": "590 nM"}
{"molecule": "N#Cc1cnc(SCC(=O)Nc2ccc(Cl)c(Br)c2)nc1N", "reported measurement": "670 nM"}
{"molecule": "O=C(NCc1ccc(OC(F)F)cc1)c1ccc(C2SCCS2)cc1", "reported measurement": "420 nM"}
{"molecule": "N#CCc1ccc(NC(=O)CNc2ccc(C(F)(F)F)cc2)cc1 [Compound D2]", "reported measurement": "1320 nM"}
{"molecule": "Cc1cc(Br)ccc1OCCn1cnc2ccccc2c1=O", "reported measurement": "1230 nM"}
{"molecule": "O=C(Nc1ccc(Cl)c(Cl)c1)c1ccc(=O)n(Cc2cccc(F)c2)n1", "reported measurement": "2870 nM"}
{"molecule": "Cc1cc(Br)ccc1NC(=O)CNC(=O)c1ccc(-n2cnc3ccccc32)cc1 [Compound D1]", "reported measurement": "1990 nM"}
{"molecule": "Cc1noc(CN2CCCC(CCC(=O)Nc3ccc(C(F)(F)F)cc3)C2)n1 (stereo not drawn)", "reported measurement": "2940 nM"}
{"molecule": "N#Cc1cc(CN2CCC3(CC2)CC(Nc2ncccn2)C3)ccc1F", "reported measurement": "510 nM"}
